Data origin, for the record: patent US10000471B2

# Test system: IL-8 release in d-U937 cells
# test-details: LPS-induced IL-8 release in d-U937 cells
# Type: cell-based, human
# cond: Homo sapiens, dU937
Would you kindly list pIC50 for each of these compounds?
Give bare numbers, as −log10 of the molar value.

Consider the reported pIC50 for these compounds:
Lab note: `CSc1ccc(-n2nc(C(C)(C)C)cc2NC(=O)Nc2ccc(Oc3ccnc(NC(=O)N4CCCC4)c3)c(Cl)c2Cl)cc1` gave pIC50 of 8.92

Lab note: `COCC(=O)Nc1cc(Oc2ccc(NC(=O)Nc3cc(C(C)(C)C)nn3-c3cccc(CO)c3)c(Cl)c2Cl)ncn1` gave pIC50 of 8.00

Lab note: `CNC(=O)Nc1cc(Oc2ccc(NC(=O)Nc3cc(C(C)(C)C)nn3-c3ccc(OC)cc3)c(Cl)c2Cl)ncn1` gave pIC50 of 10.00

Lab note: `CNC(=O)Nc1cc(Oc2ccc(NC(=O)Nc3cc(C(C)(C)C)nn3-c3ccc(C)cc3)c3ncccc23)ccn1` gave pIC50 of 8.34

Lab note: `COc1ccc(-n2nc(C(C)(C)C)cc2NC(=O)Nc2ccc(Oc3ccnc(NC(=O)NC4CC4)c3)c(C#N)c2Cl)cc1` gave pIC50 of 8.66

Lab note: `COc1ccc(-n2nc(C(C)(C)C)cc2NC(=O)Nc2ccc(Oc3ccnc(NC(=O)N4CCCC4)c3)c(C#N)c2Cl)cc1` gave pIC50 of 8.18

Okay, next one:
Lab note: `COCC(=O)Nc1cc(Oc2ccc(NC(=O)Nc3cc(C(C)(C)C)nn3-c3ccc(C)cc3)c3ncccc23)ccn1` gave pIC50 of 8.70

###

Would you kindly list MTT Assay (Viability) 4 h d-U937, percentage loss of cell viability for each of these compounds?
# Tested on: Differentiated U937 cells
# test-details: Cell viability MTT assay
# Type: cell-based, human
# cond: 4 hr in 5% FCS; negative = apparent increase in viability
Numbers only, in %.

Hey, can you go through the list below and give me MTT Assay (Viability) 4 h d-U937, percentage loss of cell viability for every item?
1. CNC(=O)Nc1nccc(Oc2ccc(NC(=O)Nc3cc(C(C)(C)C)nn3-c3ccc(C)cc3)c(Cl)c2Cl)n1
2. CNC(=O)Nc1cc(Oc2ccc(NC(=O)Nc3cc(C(C)(C)C)nn3-c3ccc(OC)cc3)c(Cl)c2Cl)ccn1
3. COCC(=O)Nc1cc(Oc2ccc(NC(=O)Nc3cc(C(C)(C)C)nn3-c3ccc(C)cc3)cc2S(C)(=O)=O)ccn1
4. COc1ccc(-n2nc(C(C)(C)C)cc2NC(=O)Nc2ccc(Oc3ccnc(NC(=O)N4CC[C@H](N(C)C)C4)c3)c(Cl)c2Cl)cc1
5. Cc1ccc(-n2nc(C(C)(C)C)cc2NC(=O)Nc2ccc(OCc3ccnc(NC(=O)N4CCCC4)c3)c(Cl)c2Cl)cc1
6. COCC(=O)Nc1cc(Oc2ccc(NC(=O)Nc3cc(C(C)(C)C)nn3-c3ccc(C)cc3)c3c2CCCC3)ccn1

1. −16.1
2. −26.8
3. 1.1
4. −13.2
5. −13.5
6. −3.5

Lab note: `COCC(=O)Nc1cc(Oc2ccc(NC(=O)Nc3cc(C(C)(C)C)nn3-c3ccc(C)cc3)c(Br)c2)ccn1` gave MTT Assay (Viability) 4 h d-U937, percentage loss of cell viability of 17.2
